Tested on: RPMI-8226 leukemia
Test Details: NCI tumour cell line growth inhibition, 48 h
Experimental Endpoint: TGI (µM)

[[record]]
molecule = "CO[C@@H]1/C=C(C)/C=C/[C@@H](C)/C=C(\\C)C(=O)OC(/C(C)=C/C=C(\\C)CNC(=O)[C@H](CO)NC=O)[C@@H](C)/C=C/C=C/[C@H](OC)CC/C=C(C)/C=C/C1 (stereo not given in full)"
unit_abbreviation = "µM"
comparison_operator = "="
observed_result = 11.8

[[record]]
molecule = "CN(C)CCSC(=Nc1ccccc1)N1CCCCC1"
unit_abbreviation = "µM"
comparison_operator = "="
observed_result = 87.4

[[record]]
molecule = "O=C(c1ccco1)c1c(C(F)(F)F)n([O-])c2ccccc2[n+]1=O"
unit_abbreviation = "µM"
comparison_operator = "="
observed_result = 1.27

[[record]]
molecule = "Cc1cc(S(=O)(=O)O)c(NC(=O)C(=O)C2C=CCS2(=O)=O)cc1Cl (stereo not given)"
unit_abbreviation = "µM"
comparison_operator = ">"
observed_result = 100

[[record]]
molecule = "CCOc1nc(-c2ccccc2)cc(-c2ccc(N3CCOCC3)cc2)c1C#N"
unit_abbreviation = "µM"
comparison_operator = ">"
observed_result = 100

[[record]]
molecule = "O=[Se](=O)c1ccccc1.O=[Se](=O)c1ccccc1.[Cu]"
unit_abbreviation = "µM"
comparison_operator = "="
observed_result = 63.1

[[record]]
molecule = "Cc1sc(/N=C/c2c[nH]c3ccccc23)c(C#N)c1C"
unit_abbreviation = "µM"
comparison_operator = ">"
observed_result = 100

[[record]]
molecule = "O=C1C=C(Br)c2c(Br)sc(Br)c21"
unit_abbreviation = "µM"
comparison_operator = ">"
observed_result = 100

[[record]]
molecule = "CCCCOP1(=O)C=C(C)C(=C(Cl)Cl)C(C)=C1 (stereo not given)"
unit_abbreviation = "µM"
comparison_operator = ">"
observed_result = 24.4

[[record]]
molecule = "Cc1[nH]c2ccccc2c1C=Nc1ccc(N=Cc2c(C)[nH]c3ccccc23)cc1"
unit_abbreviation = "µM"
comparison_operator = "="
observed_result = 45.3


Values from PubChem BioAssay (NCI)
